# Tested on: 786-0 renal
# protocol.text: NCI tumour cell line growth inhibition, 48 h
Recorded TGI for the following molecules

molecule | TGI
Oc1cccc2c1NC1=C(CCC/C1=C\c1ccccc1)C2 | > 100 µM
CCn1c(=O)c(-c2ccn[nH]2)cc2c(C)nc(N)nc21 | 5.59 µM
O=C(O)CC(C(=O)O)c1ccccc1[N+](=O)[O-] (stereo not drawn) | > 100 µM
CC(=O)Nc1ccc(/C=C(\NC(=O)c2ccccc2)c2nc3ccc4c(c3[nH]2)C(=O)c2ccccc2C4=O)cc1 | > 100 µM
S=CN1CCCCC1 | > 100 µM
O=[N+]([O-])c1cnc(Sc2ccncn2)c([N+](=O)[O-])c1 | 25 µM
COc1ccc(C(=O)Cn2c(C(=O)c3ccc(Cl)cc3)nc3ccccc32)cc1 | > 27.3 µM
CC(C)(C)[Si](C)(C)OCC1CCC(n2cnc3c(NC(=O)c4ccccc4)ncnc32)O1 (stereo not drawn) | 31.3 µM
Cc1c(N2C(=O)/C(=C/C=C/c3ccccc3)N=C2c2ccccc2)c(=O)n(-c2ccccc2)n1C | > 100 µM
COc1nc2c(OC)cccc2c(OC)c1C=O | > 100 µM
CCCCCCCCCCCCN1C(C)=CS/C1=C\C=C\c1scc(C)[n+]1CCCCCCCCCCCC | 7.37 µM
CCCCCCCCCOC(=O)c1cnc(Cl)cn1 | > 100 µM
CC(C)(C)[OH+][O-].[O-]c1ccc(Cl)cc1C=Nc1ccc(Cl)cc1[O-].[O]=[V] | 27.1 µM

###

# Test system: OVCAR-4 ovarian
# protocol.text: NCI tumour cell line growth inhibition, 48 h

compound | unit.abbrev | result.modifier | TGI
CCN(CC)c1ccc(/C=C(\C#N)c2nc(N)nc(N3N=C(C)CC3(C)C)n2)cc1 | µM | = | 30.5
COC(CN(C)C(=O)C(C)NC(=O)c1ccccc1)OC (stereo not given) | µM | > | 100
CCCCCCCCCOC(=O)c1cnc(Cl)cn1 | µM | = | 71.1
COc1ccc(C(=O)Cn2c(C(=O)c3ccc(OC)cc3)nc3ccccc32)cc1 | µM | > | 100
CCOP(=O)(OCC)C(NC(=O)OCC(Cl)(Cl)Cl)n1nnc(C(=O)OC)c1C(=O)OC (stereo not given) | µM | > | 100

###

Examples of compounds with documented TGI follow.
# Tested on: OVCAR-3 ovarian
# protocol.text: NCI tumour cell line growth inhibition, 48 h
observed.property: TGI (µM)

compound | tgt | observed.property | result.modifier | experimental.value
c1ccc(COc2ccc(CC3SCCCS3)cc2)cc1 | OVCAR-3 ovarian | TGI | > | 100
O=c1c2ccccc2nc2n1NC(c1c(Cl)cccc1Cl)N2c1cccc(Cl)c1 (stereo not drawn) | OVCAR-3 ovarian | TGI | = | 54.2
Cc1ccc(/C=C2\CN(C)CC3=C2OC(N)=C(C#N)C3c2ccc(C)cc2)cc1 (stereo not drawn) | OVCAR-3 ovarian | TGI | = | 29.8

###

Measured GI50, listed per entry.
# Tested on: UACC-257 melanoma
# protocol.text: NCI tumour cell line growth inhibition, 48 h
observed.property: GI50

compound | experimental.value
COc1ccc(C(=O)Cn2c(C(=O)c3ccc(OC)cc3)nc3ccccc32)cc1 | 53 µM
CCNC(=O)C[C@@H]1N=C(c2ccc(Cl)cc2)c2cc(OC)ccc2-n2c(C)nnc21 | 2 µM
O=S(=O)([O-])[O-].[OH3+].[OH3+].[OH3+].[Ru+2].c1ccccc1 | > 100 µM
CC/C=C\C[C@H](O)C/C=C1/C(=O)C=C[C@@H]1C/C=C\CCCC(=O)NC(C)C | 2.17 µM
O=C(Nc1ccc(-c2nc3cc4ccccc4cc3[nH]2)cc1)c1cccc(Br)c1 | 21 µM
N#CC1=C(N)Oc2cc3c(cc2C1c1cccs1)OCO3 (stereo not drawn) | 0.502 µM
COc1ccc(C(=O)Cn2c(C(=O)c3ccc(Cl)cc3)nc3ccccc32)cc1 | > 100 µM
COc1ccc(C(=O)/C=C/c2ccc(O)c(O)c2F)c(OC)c1 | 10.5 µM

Ref: PubChem BioAssay (NCI)
